assay_details: clinical
condition_summary: human, in vivo, po, 100 mg, AUC docetaxel oral without ritonavir
observed_property: AUC (ng·h/mL)
Answer format: numeric, ng·h/mL implied, no suffix.

response.value for CC(=O)O[C@@]12CO[C@@H]1C[C@H](O)[C@@]1(C)C(=O)[C@H](O)C3=C(C)[C@@H](OC(=O)[C@H](O)[C@@H](NC(=O)OC(C)(C)C)c4ccccc4)C[C@@](O)([C@@H](OC(=O)c4ccccc4)[C@H]21)C3(C)C (field: AUC) = 290

---

assay_details: clinical
condition_summary: human, in vivo, po, 100 mg
observed_property: bioavailability (%)
Answer format: numeric, % implied, no suffix.

response.value for CC(=O)O[C@@]12CO[C@@H]1C[C@H](O)[C@@]1(C)C(=O)[C@H](O)C3=C(C)[C@@H](OC(=O)[C@H](O)[C@@H](NC(=O)OC(C)(C)C)c4ccccc4)C[C@@](O)([C@@H](OC(=O)c4ccccc4)[C@H]21)C3(C)C (field: bioavailability) = 14
